- EXPERIMENT_SUMMARY: in vivo
- EXPERIMENTAL_CONTEXT: male, Landrace × Large White × Duroc, pig, iv, 0.1 mg/kg
REPORTED_METRIC: AUC(0-inf) (ng·h/mL)
Supply the numeric figure in ng·h/mL, leaving out any unit text.

Prompt line: Which AUC(0-inf) value belongs to `COc1cc(=O)oc(/C=C/C=C/C=C/C(C)=C/[C@]2(C)O[C@H](C)[C@](C)(O)[C@H]2O)c1C` ?
Response line: 1510

====

- EXPERIMENT_SUMMARY: in vivo
- EXPERIMENTAL_CONTEXT: male, Landrace × Large White × Duroc, pig, iv, 0.1 mg/kg
REPORTED_METRIC: half-life (h)
Supply the numeric figure in h, leaving out any unit text.

Prompt line: Which half-life value belongs to `COc1cc(=O)oc(/C=C/C=C/C=C/C(C)=C/[C@]2(C)O[C@H](C)[C@](C)(O)[C@H]2O)c1C` ?
Response line: 16.2

====

- EXPERIMENT_SUMMARY: in vivo
- EXPERIMENTAL_CONTEXT: male, Landrace × Large White × Duroc, pig, iv, 0.1 mg/kg
REPORTED_METRIC: MRT (h)
Supply the numeric figure in h, leaving out any unit text.

Prompt line: Which MRT value belongs to COc1cc(=O)oc(/C=C/C=C/C=C/C(C)=C/[C@]2(C)O[C@H](C)[C@](C)(O)[C@H]2O)c1C [CTVD, Citreoviridin] ?
Response line: 14.6

====

- EXPERIMENT_SUMMARY: in vitro
- EXPERIMENTAL_CONTEXT: human, Caco-2, Papp (apparent permeability coefficient)
REPORTED_METRIC: Papp (×10⁻⁶ cm/s)
Supply the numeric figure in ×10⁻⁶ cm/s, leaving out any unit text.

Prompt line: Which Papp value belongs to COc1cc(=O)oc(/C=C/C=C/C=C/C(C)=C/[C@]2(C)O[C@H](C)[C@](C)(O)[C@H]2O)c1C [CTVD, Citreoviridin] ?
Response line: 52.2

====

- EXPERIMENT_SUMMARY: in vivo
- EXPERIMENTAL_CONTEXT: male, Landrace × Large White × Duroc, pig, po, 0.1 mg/kg
REPORTED_METRIC: half-life (h)
Supply the numeric figure in h, leaving out any unit text.

Prompt line: Which half-life value belongs to `COc1cc(=O)oc(/C=C/C=C/C=C/C(C)=C/[C@]2(C)O[C@H](C)[C@](C)(O)[C@H]2O)c1C` ?
Response line: 21.4

====

- EXPERIMENT_SUMMARY: in vivo
- EXPERIMENTAL_CONTEXT: male, Landrace × Large White × Duroc, pig, po, 0.1 mg/kg
REPORTED_METRIC: Cmax (ng/mL)
Supply the numeric figure in ng/mL, leaving out any unit text.

Prompt line: Which Cmax value belongs to COc1cc(=O)oc(/C=C/C=C/C=C/C(C)=C/[C@]2(C)O[C@H](C)[C@](C)(O)[C@H]2O)c1C [CTVD, Citreoviridin] ?
Response line: 38.2
